Experimental system: Organic anion transporter 3 (Homo sapiens)
Sequence (Q8TCC7 whole entry): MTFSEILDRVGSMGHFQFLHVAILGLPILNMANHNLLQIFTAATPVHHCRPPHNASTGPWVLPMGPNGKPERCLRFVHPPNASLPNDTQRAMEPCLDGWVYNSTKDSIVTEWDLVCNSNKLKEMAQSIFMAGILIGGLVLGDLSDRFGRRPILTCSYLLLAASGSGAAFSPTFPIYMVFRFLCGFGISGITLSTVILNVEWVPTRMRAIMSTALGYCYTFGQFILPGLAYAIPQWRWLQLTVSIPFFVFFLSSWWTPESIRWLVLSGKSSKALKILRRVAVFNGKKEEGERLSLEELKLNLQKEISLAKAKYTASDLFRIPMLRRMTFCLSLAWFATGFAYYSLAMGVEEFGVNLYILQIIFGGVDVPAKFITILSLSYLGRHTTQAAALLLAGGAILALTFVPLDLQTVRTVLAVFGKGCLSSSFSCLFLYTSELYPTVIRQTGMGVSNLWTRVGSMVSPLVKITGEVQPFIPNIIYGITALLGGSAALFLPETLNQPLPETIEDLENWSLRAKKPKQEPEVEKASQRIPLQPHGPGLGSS
Test details: Inhibition of OAT3 (unknown origin)
Each entry below carries its reported IC50.
Supply the numeric figure in nM, leaving out any unit text.

INSERT INTO results (structure_smiles, result) VALUES
  ('N#Cc1cc(S(=O)(=O)Nc2ccc(F)cn2)ccc1Oc1ccc(CO)c(Cl)c1', 500);

Entry under review: `N#Cc1ccc(Oc2ccc(S(=O)(=O)Nc3ccc(F)cn3)cc2C#N)cc1Cl` . Reported IC50? 720

====

Test details: Renal clearance in rat
Assay type: ADME
Experimental conditions: in vivo
Measurement type: CL renal (mL/day/kg)
Dear colleague, please return just the value in mL/day/kg, with no unit written.

I am curious: what CL renal value has been reported for `N#Cc1ccc(Oc2ccc(S(=O)(=O)Nc3ccc(F)cn3)cc2C#N)cc1Cl` ? 0.144

====

Experimental system: Solute carrier family 22 member 11 (Homo sapiens, UniProt Q9NSA0)
Sequence (Q9NSA0 whole entry): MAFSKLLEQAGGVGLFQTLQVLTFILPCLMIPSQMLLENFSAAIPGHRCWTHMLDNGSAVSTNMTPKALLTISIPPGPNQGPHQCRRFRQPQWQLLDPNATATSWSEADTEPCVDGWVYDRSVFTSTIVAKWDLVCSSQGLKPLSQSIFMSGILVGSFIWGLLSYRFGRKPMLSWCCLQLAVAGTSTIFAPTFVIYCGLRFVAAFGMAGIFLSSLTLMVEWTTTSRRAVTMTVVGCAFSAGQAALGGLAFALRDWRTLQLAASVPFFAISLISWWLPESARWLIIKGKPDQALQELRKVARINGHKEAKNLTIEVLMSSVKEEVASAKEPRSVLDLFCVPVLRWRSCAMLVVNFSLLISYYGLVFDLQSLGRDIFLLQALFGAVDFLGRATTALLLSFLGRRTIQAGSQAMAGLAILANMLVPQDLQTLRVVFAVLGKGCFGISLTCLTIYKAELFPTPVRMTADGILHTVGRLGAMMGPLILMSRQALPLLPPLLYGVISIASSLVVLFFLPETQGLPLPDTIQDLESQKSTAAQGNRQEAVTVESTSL
Measurement type: pIC50
pIC50 here is simply -log10 of the concentration when that concentration is written in mol/L.

pIC50 lookup needed for `N#Cc1cc(S(=O)(=O)Nc2ccc(F)cn2)ccc1Oc1ccc(CO)c(Cl)c1` , thanks. 4.82

Again, but for `N#Cc1ccc(Oc2ccc(S(=O)(=O)Nc3ccc(F)cn3)cc2C#N)cc1Cl` 4.85

====

Test details: Plasma clearance in rat at 0.76 mg/kg, iv and 2.3 mg/kg, po
Type: ADME, organism-based
Measurement type: clearance
Your reply should be a number followed by the unit it is expressed in.

Which value of clearance has been reported for `N#Cc1ccc(Oc2ccc(S(=O)(=O)Nc3ccc(F)cn3)cc2C#N)cc1Cl` in the records? 0.48 mL/min/kg

====

Test details: Half life in rat at 0.5 mg/kg, iv and 1 mg/kg, po
Type: ADME, organism-based
Experimental conditions: in vivo
Recorded half-life values for a group of molecules are listed next.
# value in h; strip the unit string

INSERT INTO measurements (structure_smiles, unit_text, result) VALUES
  ('N#Cc1cc(S(=O)(=O)Nc2ccc(F)cn2)ccc1Oc1ccc(CO)c(Cl)c1', 'h', 3.9);

# next molecule below
I am curious: what half-life value has been reported for `N#Cc1ccc(Oc2ccc(S(=O)(=O)Nc3ccc(F)cn3)cc2C#N)cc1Cl` ? 6.7
